Documented Ratio IC50 across a set of compounds
- PROTOCOL SUMMARY: Selectivity index, ratio of IC50 for horse serum butyrylcholinesterase to IC50 for electric eel acetylcholinesterase
No unit in the answer, please; the number alone is enough.

Answered cases to consult:
{"columns": ["GIVEN SMILES", "RESULT TYPE", "VALUE"],
 "data": [
  ["O=C(Nc1ccc(Br)cc1)Nc1nc(-c2cc3cc([N+](=O)[O-])ccc3o2)cs1", "Ratio IC50", 1.22],
  ["COc1ccc(NC(=O)Nc2nc(-c3cc4ccccc4o3)cs2)cc1", "Ratio IC50", 1.42]
]}

stdin: Please give the documented Ratio IC50 of O=C(Nc1nc(-c2cc3cc(Br)ccc3o2)cs1)Nc1ccccc1F
stdout: 2.4

stdin: Give the reported Ratio IC50 for this compound. O=C(Nc1ccccc1)Nc1nc(-c2cc3ccccc3o2)cs1
stdout: 0.86

stdin: // fetch Ratio IC50 given entry O=C(Nc1cccc(Cl)c1)Nc1nc(-c2cc3cc(Br)ccc3o2)cs1
stdout: 3.32

* * *

- ASSAYED TARGET: Acetylcholinesterase (Electrophorus electricus)
- Sequence (O42275 whole entry): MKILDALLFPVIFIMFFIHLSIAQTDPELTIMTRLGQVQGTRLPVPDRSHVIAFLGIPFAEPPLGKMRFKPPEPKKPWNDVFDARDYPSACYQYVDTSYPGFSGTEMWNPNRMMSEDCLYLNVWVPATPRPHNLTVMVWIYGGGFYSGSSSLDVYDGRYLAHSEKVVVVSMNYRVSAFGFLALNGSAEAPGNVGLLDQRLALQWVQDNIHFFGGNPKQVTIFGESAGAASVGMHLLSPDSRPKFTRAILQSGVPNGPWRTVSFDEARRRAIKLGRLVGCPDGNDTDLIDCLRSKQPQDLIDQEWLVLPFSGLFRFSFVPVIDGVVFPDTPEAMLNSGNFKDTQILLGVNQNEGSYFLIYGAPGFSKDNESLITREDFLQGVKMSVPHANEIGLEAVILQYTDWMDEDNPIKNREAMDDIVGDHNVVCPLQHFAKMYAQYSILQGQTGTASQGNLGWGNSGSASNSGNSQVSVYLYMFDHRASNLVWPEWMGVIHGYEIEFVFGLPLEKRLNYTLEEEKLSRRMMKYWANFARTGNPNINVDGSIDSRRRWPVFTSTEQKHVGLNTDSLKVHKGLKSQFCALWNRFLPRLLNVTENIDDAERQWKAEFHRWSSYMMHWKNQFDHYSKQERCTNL
RESULT TYPE: pIC50
Answer as the number alone; pIC50 is minus log10 of concentration in mol/L.

Use these answered entries as a reference point.
{"columns": ["GIVEN SMILES", "VALUE"],
 "data": [
  ["O=C(Nc1ccc(I)cc1)Nc1nc(-c2cc3cc([N+](=O)[O-])ccc3o2)cs1", 5.26],
  ["O=C(Nc1ccc([N+](=O)[O-])cc1)Nc1nc(-c2cc3ccccc3o2)cs1", 5.28],
  ["COc1ccc(NC(=O)Nc2nc(-c3cc4cc(Br)ccc4o3)cs2)cc1", 4.48],
  ["O=C(Nc1ccccc1)Nc1nc(-c2cc3cc(Br)ccc3o2)cs1", 4.63],
  ["COc1ccc(NC(=O)Nc2nc(-c3cc4ccccc4o3)cs2)cc1", 4.28]
]}

stdin: Give a short answer stating reported pIC50 for O=C(Nc1ccccc1)Nc1nc(-c2cc3ccccc3o2)cs1 .
stdout: 4.61

stdin: Please indicate pIC50 recorded for O=C(Nc1cccc(Cl)c1)Nc1nc(-c2cc3cc(Br)ccc3o2)cs1
stdout: 5.10

stdin: Give me measured pIC50, please, for this compound: O=C(Nc1ccc([N+](=O)[O-])cc1)Nc1nc(-c2cc3cc([N+](=O)[O-])ccc3o2)cs1
stdout: 4.60

* * *

- PROTOCOL SUMMARY: Antioxidant activity assessed as ABTS cation radical scavenging activity measured after 6 mins
- CONDITION NOTES: ABTS cation radical
The reader will find reported log10 IC50 values listed item by item below.
// do not treat as linear: log10 of IC50, unit µM

# annotated cases, reported log10 IC50 shown
{"columns": ["GIVEN SMILES", "RESULT TYPE", "VALUE"],
 "data": [
  ["O=C(Nc1ccc(F)cc1)Nc1nc(-c2cc3ccccc3o2)cs1", "log10 IC50", 0.05],
  ["Cc1ccc(NC(=O)Nc2nc(-c3cc4ccccc4o3)cs2)cc1", "log10 IC50", -0.30],
  ["O=C(Nc1cccc(F)c1)Nc1nc(-c2cc3ccccc3o2)cs1", "log10 IC50", 0.66],
  ["COc1ccc(NC(=O)Nc2nc(-c3cc4ccccc4o3)cs2)cc1", "log10 IC50", 1.24]
]}

stdin: Return log10 IC50 (reported value) for this molecule: O=C(Nc1ccc([N+](=O)[O-])cc1)Nc1nc(-c2cc3ccccc3o2)cs1
stdout: 1.29

stdin: // fetch log10 IC50 given entry O=C(Nc1ccccc1)Nc1nc(-c2cc3ccccc3o2)cs1
stdout: 1.45

stdin: Return the recorded log10 IC50 value; entry: O=C(Nc1ccccc1)Nc1nc(-c2cc3cc([N+](=O)[O-])ccc3o2)cs1
stdout: 2.26

stdin: Output measured log10 IC50 for this item: COc1cccc(NC(=O)Nc2nc(-c3cc4ccccc4o3)cs2)c1
stdout: -0.70

stdin: Look up log10 IC50 of O=C(Nc1ccc(Cl)cc1)Nc1nc(-c2cc3ccccc3o2)cs1 and report it.
stdout: 1.05

stdin: # return recorded log10 IC50 for entry O=C(Nc1ccc(Br)cc1)Nc1nc(-c2cc3cc([N+](=O)[O-])ccc3o2)cs1
stdout: 2.29

stdin: Name the recorded log10 IC50 of the molecule listed here: O=C(Nc1ccc([N+](=O)[O-])cc1)Nc1nc(-c2cc3cc([N+](=O)[O-])ccc3o2)cs1
stdout: 2.00

stdin: Return log10 IC50 for the following molecule: O=C(Nc1ccc(I)cc1)Nc1nc(-c2cc3ccccc3o2)cs1
stdout: 1.79

stdin: Return log10 IC50 for the following molecule: O=c1c(O)c(-c2ccc(O)c(O)c2)oc2cc(O)cc(O)c12
stdout: 0.07

stdin: Give log10 IC50 for O=C(Nc1cccc(Cl)c1)Nc1nc(-c2cc3ccccc3o2)cs1
stdout: 1.15

stdin: Assign log10 IC50 to the following record: O=C(Nc1nc(-c2cc3ccccc3o2)cs1)Nc1ccccc1[N+](=O)[O-]
stdout: 1.31

stdin: Give log10 IC50 for the following molecule: COc1ccccc1NC(=O)Nc1nc(-c2cc3ccccc3o2)cs1
stdout: 1.68

stdin: For O=C(Nc1ccc(I)cc1)Nc1nc(-c2cc3cc([N+](=O)[O-])ccc3o2)cs1 , write its log10 IC50.
stdout: 1.80

stdin: Supply measured log10 IC50 of O=C(Nc1cccc([N+](=O)[O-])c1)Nc1nc(-c2cc3cc(Br)ccc3o2)cs1 in your reply.
stdout: 2.20

stdin: Input COc1ccccc1NC(=O)Nc1nc(-c2cc3cc(Br)ccc3o2)cs1 , output reported log10 IC50.
stdout: 1.89
